- Test system: DU-145
- assay: NCI tumour cell line growth inhibition, 48 h
The source made the active and inactive calls. No stated cut-off is given here; in the data, active = GI50 up to about 1.1 µM and inactive = higher.
Assignment: determine reported GI50 for the given compounds.

A selection of reference data follows.
>>> print(df.to_string())
                                   compound  assaytarget          measurement
0  O=S(=O)(O)c1cc(/N=N/c2cc(S(=O)(=O)O)c3cccnc3c2O)ccc1/C=C/c1ccc(/N=N/c2cc(S(=O)(=O)O)c3cccnc3c2O)cc1S(=O)(=O)O       DU-145  > 100 µM (inactive)
1  Cn1/c(=N\N=C(\CNCCO)[C@@H](O)[C@@H]2OC(c3ccccc3)OC[C@H]2O)sc2ccccc21 (some centres undefined)       DU-145   18.5 µM (inactive)
2  CC1(C)COC(c2cccc(C(O)c3ccc(Cl)cc3)c2)=N1 (centres undefined)       DU-145   58.2 µM (inactive)

From here, focus on the item given below.
Exercise: Entry O=C(O)c1cccc(S(=O)(=O)NN2C(=O)CSC2c2ccc(Cl)cc2Cl)c1 (centres undefined) : reported GI50 = ?
Key: > 100 µM (inactive)

----------
- System: Malme-3M
- assay: NCI tumour cell line growth inhibition, 48 h
Active and inactive are the calls of the source. Rule as the data show it: active = GI50 up to about 1.1 µM and inactive = higher.
Please state which outcome applies, choosing from active, inactive

In [3]: df
Out[3]:
                                   compound     group
0  CC(C)=CC(C(O)c1ccccc1)S(=O)(=O)c1nccn1C (stereo not given)  inactive

Exercise: Recorded test call requested for Cn1c(=O)c2nc(CCCCc3nc4ccccc4[nH]3)[nH]c2n(C)c1=O
Key: inactive

Exercise: Recorded test call requested for O=S1(=O)c2ccccc2C(Nc2ccccc2)N1c1ccccc1 (stereo not given)
Key: inactive

Exercise: Recorded test call requested for Cc1cnc2c(c1)C(=O)C1=C(C2=O)C2OC(=O)CC2OC1(C)C (stereo not given)
Key: active

Exercise: Recorded test call requested for Cc1c(C)c(S(=O)(=O)N(CCCCCON)OCCCN)c(C)c2c1OC(C)(C)CC2
Key: inactive

Exercise: Recorded test call requested for COc1ccc(C[C@H]2COC(=O)[C@@H]2Cc2ccc(O)cc2)cc1OC
Key: inactive

Exercise: Recorded test call requested for O=P(O)(O)OC1O[C@H](CO)[C@H](O)[C@H](O)[C@H]1O (stereo not given in full)
Key: inactive

Exercise: Recorded test call requested for NN=C(CC(O)(C(F)(F)Cl)C(F)(F)Cl)CC(O)(C(F)(F)Cl)C(F)(F)Cl
Key: inactive

Exercise: Recorded test call requested for CC(=O)Oc1cc(OC(C)=O)c2c(=O)c3ccccc3[nH]c2c1
Key: inactive

Exercise: Recorded test call requested for Cc1nc2c(ccc3ncccc32)[nH]1
Key: inactive

----------
- Tested on: TK-10
- assay: NCI tumour cell line growth inhibition, 48 h
The source made the active and inactive calls. Cut-off read from the data, not from the text of the source: active = GI50 up to about 1.1 µM and inactive = higher.
Please state which outcome applies, choosing from True for active, False for inactive

Exercise: Recorded test call requested for CCC(=O)NCC1CCCN2CCCCC12 (stereo not given)
Key: False

Exercise: Recorded test call requested for O=C(CCl)Nc1ccc(C(=O)N/N=C/c2ccc(Cl)cc2)cc1
Key: False

Exercise: Recorded test call requested for CCCCNC(=S)N/N=C/c1cccc(C)n1
Key: False

Exercise: Recorded test call requested for Cc1cn(C(=O)NC23CC4CC(CC(C4)C2)C3)c(=O)[nH]c1=O
Key: False

Exercise: Recorded test call requested for S=C(N/N=C(/c1ccccc1)c1ccccn1)Nc1ccc(Cl)cc1
Key: True

Exercise: Recorded test call requested for CC(=N\N=C\c1ccccn1)/C(C)=N/N=C(C)/C(C)=N/N=C(C)/C(C)=N/N=C/c1ccccn1
Key: False

Exercise: Recorded test call requested for Cc1ccc(O)c(-c2cc(-c3ccccc3)nc(/N=C\c3ccccc3)n2)c1
Key: False

Exercise: Recorded test call requested for CCOC(=O)c1nc2ccccc2nc1Nc1ccc(Cl)c(Cl)c1
Key: False

Exercise: Recorded test call requested for COc1ccc(/C=c2\sc3n(c2=O)C(N)=C(C#N)C(c2ccc(OC)cc2)C=3c2nc3ccccc3[nH]2)cc1 (stereo not given)
Key: False

Exercise: Recorded test call requested for NCC(=O)OCN1C(=O)C2C3C=CC(C2C1=O)C1C2C(=O)N(COC(=O)CN)C(=O)C2C31 (stereo not given)
Key: False

Exercise: Recorded test call requested for COc1c(Cl)c2c(c(OC)c1OC)-c1ccc(OC)c(=O)c(Cl)c1C(NC(C)=O)CC2 (stereo not given)
Key: True

Exercise: Recorded test call requested for O=C1CSC(/C=C/c2ccccc2)N1c1ccc(-n2c(-c3ccccc3)nc3ccccc3c2=O)cc1 (stereo not given)
Key: False

Exercise: Recorded test call requested for C=C1C2CC3CCC2C(OC(=O)c2ccccc2C(=O)O)C13 (stereo not given)
Key: False

Exercise: Recorded test call requested for CN(C)/C=N/S(=O)(=O)c1nn2c(C=O)c(-c3ccc(-c4ccc([N+](=O)[O-])cc4)o3)nc2s1
Key: False

Exercise: Recorded test call requested for CCSc1nc2sc(C)c(C)c2c(=O)n1-c1ccc(C(=O)O)cc1
Key: False

Exercise: Recorded test call requested for OCC1CC2C=CCC(C2)C1 (stereo not given)
Key: False

Exercise: Recorded test call requested for Cn1c(=O)nc2n(-c3cc(C(F)(F)F)cc(C(F)(F)F)c3)c3ccccc3nc-2c1=O
Key: False
